method: LogD7.4
Assay type: physicochemical
run-parameters: pH 7.4
// values below are reported logD
API doc: respond with a numeric literal and nothing else, no unit.

Sample answers from the record:
| compound | measured-quantity | test-value |
| --- | --- | --- |
| COc1ccc(CC(=O)Nc2[nH]nc(C)c2-c2ccccc2)c(Cl)c1 [2A] | logD | 3.1 |
| COc1ccc(C(=O)Nc2ccc(CNC(=O)c3ccnn3C)cc2C)cn1 [7A] | logD | 2 |
| CC1COCCN1c1cc(OCc2ccccc2)nc(-c2nccn2C)n1 (centres unmarked) [3A] | logD | 3.3 |
| O=C(NCCCn1ccnc1)NC1C(=O)Nc2ccccc2SC1c1cc(F)ccc1F (centres unmarked) [9B] | logD | 3.8 |

Suppose we examine the compound Cc1csc(CN(C)c2nc3c(s2)C(=O)NCCC3)n1 [6B] ; what logD value has been reported?
1.6

###

// values below are reported solubility
method: Aqueous solubility in pH 7.4 PBS
Format: physicochemical
run-parameters: PBS pH 7.4, aqueous buffer; pH 7.4 PBS; read-out: Aqueous solubility in pH7.4 PBS
Report only the number, with the unit µM understood.

Sample answers from the record:
| molecule | measured-quantity | test-value |
| --- | --- | --- |
| O=C(NCCCn1ccnc1)NC1C(=O)Nc2ccccc2SC1c1cc(F)ccc1F (stereo not drawn) | solubility | 43 |
| Cc1nc(C(=O)NC(C)c2cccc3ccccc23)c(NC(=O)Cc2ccccc2)[nH]1 (stereo not drawn) | solubility | 22 |
| O=C(Cc1cc(F)cc(F)c1)NCC(=O)NC1C(=O)Nc2ccccc2SC1c1ccccc1 (stereo not drawn) | solubility | 105 |
| Cc1nc(C(=O)NC(C)c2ccc(F)cc2)c(NC(=O)Cc2ccccc2)[nH]1 (stereo not drawn) | solubility | 12 |
| Cc1nccc(N2CCC(C(=O)N3CCCN(S(=O)(=O)c4ccc(Br)cc4)CC3)CC2)n1 | solubility | 217 |
| COc1ccc(CC(=O)Nc2[nH]nc(C)c2-c2ccccc2)c(Cl)c1 | solubility | 71 |

Suppose we examine the molecule COc1ccc(C(=O)Nc2ccc(CNC(=O)c3ccnn3C)cc2C)cn1 ; what solubility value has been reported?
100

Suppose we examine the molecule CN(Cc1cccc(Br)c1)S(=O)(=O)c1ccc2c(c1)C(=O)NCC2 ; what solubility value has been reported?
6

###

// values below are reported logD
method: LogD7.4
Format: physicochemical
run-parameters: pH 7.4
API doc: respond with a numeric literal and nothing else, no unit.

Suppose we examine the molecule Cc1nc(C(=O)NC(C)c2cccc3ccccc23)c(NC(=O)Cc2ccccc2)[nH]1 (centres unmarked) ; what logD value has been reported?
4.6

Suppose we examine the molecule O=C1NCCCc2nc(N3CCN(c4ccccc4F)CC3)sc21 ; what logD value has been reported?
2.9

Suppose we examine the molecule Cc1nccc(N2CCC(C(=O)N3CCCN(S(=O)(=O)c4ccc(Br)cc4)CC3)CC2)n1 ; what logD value has been reported?
2.7

Suppose we examine the molecule CN(Cc1cccc(Cl)c1)S(=O)(=O)c1ccc2c(c1)C(=O)NCC2 ; what logD value has been reported?
2.7

Suppose we examine the molecule Cc1nccc(N2CCC(C(=O)N(C)CCN(C)S(=O)(=O)c3ccc(Br)cc3)CC2)n1 ; what logD value has been reported?
2.6

###

method: Rat hepatocyte clearance
Assay type: in vitro ADME
measured-quantity: Rat hepatocytes CLint (µl/min/1x106 cells)
Report only the number, with the unit µl/min/1x106 cells understood.

Sample answers from the record:
| compound | Rat hepatocytes CLint, µl/min/1x106 cells |
| --- | --- |
| O=C(Cc1cc(F)cc(F)c1)NCC(=O)NC1C(=O)Nc2ccccc2SC1c1ccccc1 (centres unmarked) | 28.0 |
| Cc1nc(C(=O)NC(C)c2cccc3ccccc23)c(NC(=O)Cc2ccccc2)[nH]1 (centres unmarked) | 71.1 |
| COCc1ccc(C(=O)Nc2ccc(CNC(=O)c3ccnn3C)cc2C)nc1 | 25.0 |
| O=C(Cc1cccc(F)c1)Nc1[nH]ncc1-c1ccccc1 | 39.5 |
| Cc1csc(CN(C)c2nc3c(s2)C(=O)NCCC3)n1 | 22.9 |

Suppose we examine the compound CC1COCCN1c1cc(OCc2ccccc2)nc(-c2nccn2C)n1 (centres unmarked) ; what Rat hepatocytes CLint value has been reported?
147.0
